tested on: HOP-92 NSCLC; experiment: NCI tumour cell line growth inhibition, 48 h
value.type: TGI

In: Fill blank: measured TGI of the compound Cc1ccc(C(=O)Nc2ccc(CP(=O)(O)O)cc2CP(=O)(O)O)cc1N is ____.
Out: > 100 µM

In: // TGI lookup, key: Cc1cc2nc(N3C(=O)/C(=C/Cc4ccco4)N=C3c3ccccc3)sc2cc1C
Out: 60.5 µM

In: Given O=C(CCCCN1CCN(CCCCC(=O)Nc2ccccc2C#C/C=C\C#Cc2ccccc2C(F)(F)F)CC1)Nc1ccccc1C#C/C=C\C#Cc1ccccc1C(F)(F)F , state its recorded TGI.
Out: 11.5 µM

In: Field request: TGI | item: CC(=O)Nc1cccc(C#Cc2cncnc2Nc2ccc(OCc3cccc(F)c3)c(Cl)c2)c1
Out: > 22.5 µM

In: Entry CC(C)=CC1C(C(=O)OCc2cc3c(cc2Cl)OCO3)C1(C)C (centres undefined) : reported TGI = ?
Out: > 100 µM

In: Which TGI value belongs to C[C@H]1CCC/C=C/[C@@H]2C[C@H](OC3OC(CO)C(O)C(O)C3O)C[C@H]2[C@H](O)/C=C/C(=O)O1 (some centres undefined) ?
Out: > 100 µM

In: Look at this compound and give its reported TGI. COC(=O)c1ccc(NC(N)=NCCC(C)(C)c2ccc(C(F)(F)F)cc2)nc1
Out: 23.8 µM

In: Consider the compound shown here: C[n+]1c2ccccc2n2c3ccccc3c(NCCCn3ccnc3)c(C#N)c21 What is its recorded TGI?
Out: > 20.2 µM

In: // query TGI value for entry CC1=NC(=N)N=C(C)C1N=Nc1ccc2nc(C)[nH]c2c1 (centres undefined)
Out: > 100 µM

In: What does the record list as TGI for O=C(/C=C\c1ccccc1)Oc1ccc(/C=C2\CCC/C(=C\c3ccc(OC(=O)/C=C\c4ccccc4)cc3)C2=O)cc1 ?
Out: > 100 µM

In: Which value of TGI has been reported for COC(=O)Nc1cc(OCCCOC(C)=O)c2[nH]c(C(=O)OC)cc2c1C[C@H](O)CO in the records?
Out: > 100 µM

In: # query: TGI of entry Cc1nc(C(=Nc2ccc(Br)cc2)Nn2cnnc2)no1
Out: > 100 µM

In: Which measured TGI value corresponds to O=C(Nc1nc2ccc(S(=O)(=O)Nc3ccc(C4(C(F)(F)F)CC4)cc3)cc2[nH]1)c1cnccn1 ?
Out: 2.4 µM

In: Query: TGI; subject: OC1=CN=C(c2ccccc2)Oc2ccccc21
Out: > 100 µM

In: Entry under review: Cc1cc(OC2OC(CO)C(O)C(O)C2O)ccc1O (centres undefined) . Reported TGI?
Out: > 100 µM

In: Endpoint output: TGI of CNC(=O)OCc1nc(SSc2nc(COC(=O)NC)c(COC(=O)NC)n2C)n(C)c1COC(=O)NC . Value?
Out: > 100 µM

In: Would you mind telling me what TGI value was observed for COC(=O)CCC(C)[C@H]1CCC2C3CC[C@@H]4CC5(CC[C@]4(C)C3C[C@H](OC(C)=O)[C@@]21C)OOC1(CCCCC1)OO5 (some centres undefined) ?
Out: > 100 µM

In: // lookup TGI for O=C(O)c1ccccc1NCn1nc(-c2ccccc2O)oc1=S
Out: 94.6 µM

In: Recorded TGI of Cc1ccccc1Nc1cc(O)c2c(=O)cc(-c3ccccc3)oc2c1 , please.
Out: > 100 µM
